Examples of binders with documented Anti-PSMA Fab signal in the presence of PSMA follow.
Target: T1, Anti-PSMA Fab (SEQ ID NOs: 19, 20)
T1 construct: Biotinylated PSMA Fab captured on neutravidin coated plates in the phage ELISA; also called 006 PSMA Fab
Assay: phage binding ELISA; PSMA Fab on plate pre-incubated with PSMA antigen as competitor, anti-M13 HRP detection;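 further: crude clonal phage supernatants added without washing to wells preincubated with PSMA in blocking buffer, compared with wells receiving blocking buffer only, then bound phage detected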
Where no end group is shown, it is not given here.
observation.type: Anti-PSMA Fab signal in the presence of PSMA

binder: TDKLCIPEWMCINW (tested as crude clonal phage supernatant) [Phage-1844]
reading: 0.0602
//
binder: FTNWCTPEWMCSGF (tested as crude clonal phage supernatant) [Phage-1845]
reading: 0.0826
//
binder: VERMCMPAWMCDMF (tested as crude clonal phage supernatant) [Phage-1834]
reading: 0.0862
//
binder: DIPWCIPPWMCAGS (cysteine pairing not given here; also: displayed on phage as pIII fusion, pIII sequence and linker not given here, tested as crude clonal phage supernatant) [Phage-1833]
reading: 0.112
//
binder: TDKWCIPPWMCMLQ (tested as crude clonal phage supernatant) [Phage-1841]
reading: 0.0865
//
binder: LDRWCIPEWMCEMF (tested as crude clonal phage supernatant) [Phage-1843]
reading: 0.0928
//
binder: MVKWCIPSWMCDSV (tested as crude clonal phage supernatant) [Phage-1840]
reading: 0.109
//
binder: IIPWCKPAWMCSGM (tested as crude clonal phage supernatant) [Phage-1831]
reading: 0.275
//
binder: GLNWCTPTWMCQGF (tested as crude clonal phage supernatant) [Phage-1837]
reading: 0.0833
//
binder: WLPMCRPAWMCAGL (cysteine pairing not given here; also: displayed on phage as pIII fusion, pIII sequence and linker not given here, tested as crude clonal phage supernatant) [Phage-1836]
reading: 0.0653
//
binder: MGKWCIPEWMCNVS (tested as crude clonal phage supernatant) [Phage-1832]
reading: 0.0652
//
binder: YEKWCVPDWMCSMI (tested as crude clonal phage supernatant) [Phage-1835]
reading: 0.0678
//
binder: VMKWCIPVWMCGGM (tested as crude clonal phage supernatant) [Phage-1838]
reading: 0.291
//
binder: YDILCRPSWMCSWV (tested as crude clonal phage supernatant) [Phage-1839]
reading: 0.145
//
binder: VERWCVPEWMCHWI (tested as crude clonal phage supernatant) [Phage-1842]
reading: 0.0977
